pIC50 values for the molecules below.
Biological target: EGFR WT (Homo sapiens)
Assay: BaF3 cell proliferation assay, EGFR WT (Table A)
Assay type: cell-based
Settings: potency code, 3 days, CellTiterGlo, read-out: EGFR WT (Activity for Inhibiting EGFR)
pIC50: −log10 of the molar value.

Prompt: // fetch pIC50 given entry C=CC(=O)Nc1cc2c(Nc3ccc(OCc4cccc(F)c4)c(Cl)c3)ncnc2cc1OCCCN1C[C@H]2C[C@@H]1CO2
Response: 6.30 to 6.52

Prompt: // fetch pIC50 given entry C=CC(=O)Nc1cc2c(Nc3cc(Cl)c(OCc4cccc(F)c4)cc3F)ncnc2cc1OCCCN1CC(OC)C1
Response: 6.52 to 6.70

Prompt: // fetch pIC50 given entry C=CC(=O)Nc1cc2c(Nc3ccc(OCc4ccccn4)c(Cl)c3)ncnc2cc1OCCN1C2CCC1COC2
Response: 6.00 to 6.30

Prompt: // fetch pIC50 given entry C=CC(=O)Nc1cc2c(Nc3ccc(OCc4ccccn4)c(Cl)c3)ncnc2cc1OCCCN1CC(OC)C1
Response: 6.52 to 6.70

Prompt: // fetch pIC50 given entry C=CC(=O)Nc1cc2c(Nc3ccc(OCc4ccccn4)c(Cl)c3)ncnc2cc1OC1CCNC1 (centres unmarked)
Response: 6.30 to 6.52

Prompt: // fetch pIC50 given entry C=CC(=O)Nc1cc2c(Nc3ccc(OCc4cccc(F)c4)c(Cl)c3)ncnc2cc1OCCCN1CC(OC)C1
Response: 6.70 to 7.00

Prompt: // fetch pIC50 given entry C=CC(=O)Nc1cc2c(Nc3ccc(OCc4ccccn4)c(Cl)c3)ncnc2cc1OCCN1CC2CCC(C1)O2
Response: < 6.00

Prompt: // fetch pIC50 given entry C=CC(=O)Nc1cc2c(Nc3ccc(OCc4ccccn4)c(Cl)c3)ncnc2cc1OCC12CCC(CC1)N2C
Response: 6.00 to 6.30

Prompt: // fetch pIC50 given entry C=CC(=O)Nc1cc2c(Nc3ccc(OCc4ccccn4)c(Cl)c3)ncnc2cc1OCCC1(N(C)C)CC1
Response: 6.00 to 6.30

Prompt: // fetch pIC50 given entry C=CC(=O)Nc1cc2c(Nc3ccc(OCc4cccc(F)n4)c(Cl)c3)ncnc2cc1OCCCN1CCOCC1
Response: 6.00 to 6.30

----------
Target: HER2 S310F (Homo sapiens, UniProt P04626, S310F)
Construct: expressed in transfected cells; host or cells: BaF3 (murine pro-B)
Sequence (P04626 23-1255 S310F): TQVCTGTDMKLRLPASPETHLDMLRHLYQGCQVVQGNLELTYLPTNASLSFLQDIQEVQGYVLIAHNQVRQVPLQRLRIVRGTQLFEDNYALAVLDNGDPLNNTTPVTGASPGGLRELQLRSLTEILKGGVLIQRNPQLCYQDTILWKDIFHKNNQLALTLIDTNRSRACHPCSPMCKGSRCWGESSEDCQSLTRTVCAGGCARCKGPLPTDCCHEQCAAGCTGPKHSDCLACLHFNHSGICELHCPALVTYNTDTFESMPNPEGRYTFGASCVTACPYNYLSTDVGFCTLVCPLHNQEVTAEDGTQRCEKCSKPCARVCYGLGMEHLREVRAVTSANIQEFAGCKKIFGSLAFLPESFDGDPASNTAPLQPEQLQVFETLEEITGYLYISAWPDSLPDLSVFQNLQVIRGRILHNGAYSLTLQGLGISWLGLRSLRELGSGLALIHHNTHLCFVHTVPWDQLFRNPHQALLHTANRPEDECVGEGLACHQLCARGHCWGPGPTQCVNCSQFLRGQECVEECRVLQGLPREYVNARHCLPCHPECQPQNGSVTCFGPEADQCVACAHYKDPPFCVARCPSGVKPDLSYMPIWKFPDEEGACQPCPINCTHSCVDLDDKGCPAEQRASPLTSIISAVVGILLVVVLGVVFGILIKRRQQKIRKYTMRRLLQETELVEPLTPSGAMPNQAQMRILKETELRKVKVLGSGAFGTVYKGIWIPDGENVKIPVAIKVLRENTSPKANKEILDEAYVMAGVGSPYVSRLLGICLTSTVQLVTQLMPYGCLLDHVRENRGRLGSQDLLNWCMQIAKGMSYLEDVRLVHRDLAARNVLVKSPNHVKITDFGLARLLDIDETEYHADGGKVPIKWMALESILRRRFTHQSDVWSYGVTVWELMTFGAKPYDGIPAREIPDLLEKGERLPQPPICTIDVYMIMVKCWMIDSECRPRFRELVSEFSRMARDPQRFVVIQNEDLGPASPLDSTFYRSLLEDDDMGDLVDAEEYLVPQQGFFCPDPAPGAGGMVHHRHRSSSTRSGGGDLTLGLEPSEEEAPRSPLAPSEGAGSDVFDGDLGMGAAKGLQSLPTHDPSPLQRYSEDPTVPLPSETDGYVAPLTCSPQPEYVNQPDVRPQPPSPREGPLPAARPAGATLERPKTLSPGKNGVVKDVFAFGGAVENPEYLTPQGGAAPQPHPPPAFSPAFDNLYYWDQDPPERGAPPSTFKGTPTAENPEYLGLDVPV
Assay: Activity for inhibiting HER2 (Table B), HER2 S310F
Type: cell-based
Conditions: read-out: HER2 S310F, potency code (IC50)
MEASUREMENT_LABEL: IC50

Examples from the recorded data:
[[record]]
molecule = "C=CC(=O)Nc1cc2c(Nc3ccc(OCc4ccccn4)c(Cl)c3)ncnc2cc1OCCCN1CCN(C)CC1 [compound 69]"
measurement_label = "IC50"
reported_measurement = "10 to 20 nM"

[[record]]
molecule = "C=CC(=O)Nc1cc2c(Nc3ccc(OCc4ccccn4)cc3F)ncnc2cc1OC1CCN(C)C1 (stereo not drawn) [compound 59]"
measurement_label = "IC50"
reported_measurement = "100 to 200 nM"


Prompt: // fetch IC50 given entry C=CC(=O)Nc1cc2c(Nc3ccc(OCc4ccccn4)c(Cl)c3)ncnc2cc1C#CC(C)(C)NC [compound 88]
Response: 10 to 20 nM

Prompt: // fetch IC50 given entry C=CC(=O)Nc1cc2c(Nc3ccc(OCc4ccccn4)c(Cl)c3)ncnc2cc1N1CC2(CN(C)C2)C1 [compound 45]
Response: 300 to 500 nM

Prompt: // fetch IC50 given entry C=CC(=O)Nc1cc2c(Nc3ccc(OCc4cccc(F)n4)c(Cl)c3)ncnc2cc1OCCN1CC2CCC(C1)O2 [compound 156]
Response: 30 to 50 nM

Prompt: // fetch IC50 given entry C=CC(=O)Nc1cc2c(Nc3ccc(OCc4ccccn4)c(Cl)c3)ncnc2cc1C#C[C@H]1CCN(C)C1 [compound 85]
Response: 5 to 10 nM

Prompt: // fetch IC50 given entry C=CC(=O)Nc1cc2c(Nc3ccc(OCc4ccccn4)c(Cl)c3)ncnc2cc1C#CC(C)(C)N1CCCC1 [compound 84]
Response: 5 to 10 nM

Prompt: // fetch IC50 given entry C=CC(=O)Nc1cc2c(Nc3ccc(OCc4cccc(C)n4)c(Cl)c3)ncnc2cc1OCCN1CC(OC)C1 [compound 135]
Response: 100 to 200 nM

Prompt: // fetch IC50 given entry C=CC(=O)Nc1cc2c(Nc3ccc(OCc4cccc(F)n4)c(Cl)c3)ncnc2cc1OCCN1CCOCC1 [compound 154]
Response: 30 to 50 nM

----------
Target: EGFR WT (Homo sapiens)
Experiment: Activity for inhibiting EGFR (Table A), EGFR WT
Assay type: cell-based
Details: read-out: EGFR WT, potency code (IC50)
pIC50: −log10 of the molar value.
pIC50 values for the compounds below.

[[record]]
compound = "C=CC(=O)Nc1cc2c(Nc3ccc(Oc4ccc(C)nc4)c(C)c3)ncnc2cc1OCCN1CCOCC1 [compound 73]"
test_system = "EGFR WT (Homo sapiens)"
measurement_label = "pIC50"
reported_measurement = "6.00 to 6.30"

[[record]]
compound = "C=CC(=O)Nc1cc2c(Nc3ccc(OCc4ccccn4)c(Cl)c3)ncnc2cc1OCCCN1CCOCC1 [compound 21]"
test_system = "EGFR WT (Homo sapiens)"
measurement_label = "pIC50"
reported_measurement = "6.00 to 6.30"

[[record]]
compound = "C=CC(=O)Nc1cc2c(Nc3ccc(OCc4cccc(F)c4)c(Cl)c3)ncnc2cc1OCCN1CC(OC)C1 [compound 143]"
test_system = "EGFR WT (Homo sapiens)"
measurement_label = "pIC50"
reported_measurement = "6.52 to 6.70"

[[record]]
compound = "CC#CC(=O)Nc1cc2c(Nc3cc(Cl)c(OCc4cccc(F)c4)cc3F)ncnc2cc1OCCCN1CC(OC)C1 [compound 136]"
test_system = "EGFR WT (Homo sapiens)"
measurement_label = "pIC50"
reported_measurement = "6.70 to 7.00"

[[record]]
compound = "C=CC(=O)Nc1cc2c(Nc3ccc(OCc4cccc(C)n4)c(Cl)c3)ncnc2cc1O[C@@H]1CCN(C)C1 [compound 140]"
test_system = "EGFR WT (Homo sapiens)"
measurement_label = "pIC50"
reported_measurement = "6.30 to 6.52"

[[record]]
compound = "C=CC(=O)Nc1cc2c(Nc3ccc(OCc4cccnn4)c(Cl)c3)ncnc2cc1OCCCN1CCOCC1 [compound 167]"
test_system = "EGFR WT (Homo sapiens)"
measurement_label = "pIC50"
reported_measurement = "< 6.00"

[[record]]
compound = "C=CC(=O)Nc1cc2c(Nc3ccc(OCc4ccnc(C)c4)c(Cl)c3)ncnc2cc1OCCN1CCOCC1 [compound 142]"
test_system = "EGFR WT (Homo sapiens)"
measurement_label = "pIC50"
reported_measurement = "6.00 to 6.30"

[[record]]
compound = "C=CC(=O)Nc1cc2c(Nc3ccc(OCc4ccccn4)c(Cl)c3)ncnc2cc1OCC(C)(C)N(C)C [compound 94]"
test_system = "EGFR WT (Homo sapiens)"
measurement_label = "pIC50"
reported_measurement = "6.30 to 6.52"


Prompt: // fetch pIC50 given entry C=CC(=O)Nc1cc2c(Nc3ccc(OCc4cccc(F)n4)c(Cl)c3)ncnc2cc1OCCCN1C[C@@H]2C[C@H]1CO2 [compound 161]
Response: 6.52 to 6.70

Prompt: // fetch pIC50 given entry C=CC(=O)Nc1cc2c(Nc3ccc(OCc4ccccn4)c(Cl)c3)ncnc2cc1OCCN1CCC(O)CC1 [compound 111]
Response: 6.30 to 6.52

Prompt: // fetch pIC50 given entry C=CC(=O)Nc1cc2c(Nc3ccc(OCc4ccccn4)c(Cl)c3)ncnc2cc1C#C[C@@H]1CCCN1C [compound 87]
Response: < 6.00

Prompt: // fetch pIC50 given entry C=CC(=O)Nc1cc2c(Nc3ccc(OCc4ccccn4)c(Cl)c3)ncnc2cc1OCCN(C)CC [compound 32]
Response: 6.30 to 6.52

Prompt: // fetch pIC50 given entry C=CC(=O)Nc1cc2c(Nc3ccc(OCc4ccccn4)c(Cl)c3)ncnc2cc1OCCC1COCCN1C (stereo not drawn) [compound 120]
Response: < 6.00

Prompt: // fetch pIC50 given entry C=CC(=O)Nc1cc2c(Nc3ccc(OCc4ccccn4)c(Cl)c3)ncnc2cc1N1CC2CN(C)CC2C1 (stereo not drawn) [compound 47]
Response: 6.30 to 6.52

Prompt: // fetch pIC50 given entry C=CC(=O)Nc1cc2c(Nc3ccc(OCc4ncccn4)c(Cl)c3)ncnc2cc1OCCCN1CCOCC1 [compound 166]
Response: < 6.00

----------
IC50 values for the molecules below.
Molecular target: EGFR WT (Homo sapiens, UniProt P00533)
Sequence (P00533 25-1210 N540K): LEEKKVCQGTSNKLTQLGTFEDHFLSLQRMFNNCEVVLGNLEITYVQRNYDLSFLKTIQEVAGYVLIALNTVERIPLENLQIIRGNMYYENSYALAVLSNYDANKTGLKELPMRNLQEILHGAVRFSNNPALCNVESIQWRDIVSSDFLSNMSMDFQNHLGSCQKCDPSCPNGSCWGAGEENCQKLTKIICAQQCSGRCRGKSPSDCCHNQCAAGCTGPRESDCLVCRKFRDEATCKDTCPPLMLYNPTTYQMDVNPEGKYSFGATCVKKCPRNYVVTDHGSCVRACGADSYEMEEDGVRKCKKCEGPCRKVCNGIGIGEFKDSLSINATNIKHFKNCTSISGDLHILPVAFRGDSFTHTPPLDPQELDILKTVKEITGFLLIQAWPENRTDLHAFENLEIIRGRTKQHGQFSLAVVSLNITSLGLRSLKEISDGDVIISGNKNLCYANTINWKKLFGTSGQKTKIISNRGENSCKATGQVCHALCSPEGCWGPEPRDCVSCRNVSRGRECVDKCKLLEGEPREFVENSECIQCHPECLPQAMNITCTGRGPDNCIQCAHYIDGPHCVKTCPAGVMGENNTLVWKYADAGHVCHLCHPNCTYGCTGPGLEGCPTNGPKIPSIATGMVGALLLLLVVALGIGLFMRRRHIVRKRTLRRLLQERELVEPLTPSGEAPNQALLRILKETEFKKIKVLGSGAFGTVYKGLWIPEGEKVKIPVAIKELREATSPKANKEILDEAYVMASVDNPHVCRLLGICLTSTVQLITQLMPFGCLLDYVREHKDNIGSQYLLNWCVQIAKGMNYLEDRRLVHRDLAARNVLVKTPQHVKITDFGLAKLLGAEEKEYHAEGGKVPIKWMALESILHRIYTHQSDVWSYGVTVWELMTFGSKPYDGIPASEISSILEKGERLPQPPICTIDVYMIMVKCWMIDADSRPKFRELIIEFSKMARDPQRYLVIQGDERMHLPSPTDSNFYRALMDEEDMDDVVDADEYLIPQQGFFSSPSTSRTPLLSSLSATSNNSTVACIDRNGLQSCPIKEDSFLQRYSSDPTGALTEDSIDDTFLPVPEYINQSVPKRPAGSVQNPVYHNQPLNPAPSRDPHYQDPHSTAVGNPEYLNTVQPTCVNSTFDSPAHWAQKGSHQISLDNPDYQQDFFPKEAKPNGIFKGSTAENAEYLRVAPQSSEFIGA
Experiment: BaF3 cell proliferation assay, EGFR WT (Table A)
Assay type: cell-based
Conditions: potency code, 3 days, CellTiterGlo, read-out: EGFR WT (Activity for Inhibiting EGFR)

[[record]]
molecule = "C=CC(=O)Nc1cc2c(Nc3ccc(OCc4ccccn4)c(Cl)c3)ncnc2cc1C#CC1[C@H]2CNC[C@@H]12 (stereo partly drawn)"
test_system = "EGFR WT (Homo sapiens, UniProt P00533)"
reported_measurement = "500 to 1000 nM"


Prompt: // fetch IC50 given entry CC#CC(=O)Nc1cc2c(Nc3ccc(OCc4ccncn4)c(Cl)c3)ncnc2cc1OCCCN1CCOCC1
Response: 300 to 500 nM

Prompt: // fetch IC50 given entry C=CC(=O)Nc1cc2c(Nc3ccc(OCc4cccnn4)c(Cl)c3)ncnc2cc1OCCCN1CCOCC1
Response: > 1000 nM
